# SPOT intensity per record follows
Target: T1, Myo5, Q04439
T1 sequence (Q04439 1072-1160, looked up): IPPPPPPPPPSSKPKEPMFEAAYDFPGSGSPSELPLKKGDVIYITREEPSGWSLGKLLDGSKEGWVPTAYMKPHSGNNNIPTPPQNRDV
Experiment: SPOT array
Conditions: median of control spots 471
Response field accepts a number only; no unit should be typed.

TTNRGPPPLPPRANV : 206
VLRFLGFPLPIFEKG : 0
QPWTDQFEKLEKEVS : 0

Note: attention shifts to another entry.
Ask: # return recorded SPOT intensity for input NLKKRPPTAPQRKIS
Result: 3
